- System Under Test: T1, HLA-B07.02 (human)
- T1 construct: As for HLA-A02.01
- Assay Text: competition vs radiolabeled reference peptide on purified MHC I, gel filtration
Endpoint Label: IC50 (nM)
Express the result in nM but write the number alone.

Q. Tell me the measured IC50 of YPAYSKDSGL (also called β2M, . . ; SIRH) , please.
A. 79.5

Q. Tell me the measured IC50 of KLSDSRTAL (also called FRG1B, I1OT (so in the source); FRG1B, I10T) , please.
A. 9

Q. Tell me the measured IC50 of VPLYGLLLEM (also called ESR1, D538G) , please.
A. 27.9
